- tested-on: T1, CTLA4 antigen (NCBI Gene ID: 1493) obtained by TEV protease cleavage of CTLA4-mFc (Homo sapiens (Human), UniProt P16410 37-161)
- T1 construct: also called the antigen CTLA4
- T1 sequence: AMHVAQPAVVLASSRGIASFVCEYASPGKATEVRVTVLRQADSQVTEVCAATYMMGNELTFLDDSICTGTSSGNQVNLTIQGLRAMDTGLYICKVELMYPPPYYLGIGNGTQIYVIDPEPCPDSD
- assay-notes: BLI (Fortebio), antibody on AR2G sensor, CTLA4 in solution
property-measured: pKd
One number for each entry, as −log10 of the molar value.

Please review the following examples before continuing.
binder="humanized antibody 8D2H2L15 (antibody, V domains shown) VH: EVQLVESGGGLVQPGGSMRLSCAASGFTFSDNWMNWVRQAPGKGLEWLAQIRNKPYNYETYYSASVKGRFTISRDDSKNSVYLQMNSLKTEDTGVYYCTAQFAYWGQGTLVTVSS VL: DIQMTQSPSSLSASVGDRVTITCRTSENIYGGLNWYQRKPGKSPKLLIYGATNLASGVSSRFSGSGSGTDYTLTISSLQPEDVATYYCQNVLSRHPGFGSGTKLEIK" numeric_value=8.99
binder="humanized antibody 8D2H2L2 (antibody, V domains shown, also called 8D2H2L2(20150327); 8D2H2L2(20140422)) VH: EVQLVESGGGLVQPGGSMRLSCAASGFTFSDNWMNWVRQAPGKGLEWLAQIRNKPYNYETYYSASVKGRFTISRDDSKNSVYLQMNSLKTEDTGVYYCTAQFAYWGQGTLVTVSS VL: DIQMTQSPSSLSASVGDRVTITCRTSENIYGGLNWYQRKPGKSPKLLIYGATNLASGVSSRFSGSGSGTDYTLTISSLQPEDVATYYCQNVLRSPFTFGSGTKLEIK" numeric_value=9.02

--- query ---
Which pKd reading was recorded for the binder humanized antibody 8D2H2L17 (antibody, V domains shown) VH: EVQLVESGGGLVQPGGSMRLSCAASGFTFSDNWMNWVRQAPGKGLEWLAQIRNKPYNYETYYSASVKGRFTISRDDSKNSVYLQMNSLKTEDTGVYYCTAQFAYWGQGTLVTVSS VL: DIQMTQSPSSLSASVGDRVTITCRTSENIYGGLNWYQRKPGKSPKLLIYGATNLASGVSSRFSGSGSGTDYTLTISSLQPEDVATYYCQNVLSSRPGFGSGTKLEIK ?
9.12

Where do the numbers come from? From patent US20260166139A1.
